measurement-target: mOREG olfactory receptor (Olfr73) (Mus musculus, UniProt Q920P2)
Construct: N-terminal fusion with the first 20 amino acids of rhodopsin (Rho20-mOREG); untagged mOREG also measured
Sequence (Q920P2 1-313): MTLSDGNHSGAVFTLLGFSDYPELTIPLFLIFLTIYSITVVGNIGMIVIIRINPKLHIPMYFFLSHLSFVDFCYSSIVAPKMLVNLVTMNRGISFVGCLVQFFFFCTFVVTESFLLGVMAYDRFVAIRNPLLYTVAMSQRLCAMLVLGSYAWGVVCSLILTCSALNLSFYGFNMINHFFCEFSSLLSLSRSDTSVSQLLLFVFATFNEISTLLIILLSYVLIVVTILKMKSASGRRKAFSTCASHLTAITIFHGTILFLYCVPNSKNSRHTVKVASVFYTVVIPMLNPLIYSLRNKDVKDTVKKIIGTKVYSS
procedure-text: calcium imaging (fluo-4) in HEK293 cells co-expressing Rho-mOREG and olfactory CNG channel
reported-property: EC50 (µM)
Give a bare numeral; the unit µM is implied.

q: Lab request: please report EC50 under test system mOREG olfactory receptor (Olfr73) (Mus musculus, UniProt Q920P2) for "C=CCc1ccc(O)c(OC)c1"
a: 20.8
